- target-desc: Caco-2-derived dipeptidyl peptidase IV (Homo sapiens)
- Construct: A dipeptidyl peptidase IV crude enzyme solution was prepared from culture cell of Caco-2 (ATCC HTB-37); endogenous in cells
- Sequence (P27487 whole entry): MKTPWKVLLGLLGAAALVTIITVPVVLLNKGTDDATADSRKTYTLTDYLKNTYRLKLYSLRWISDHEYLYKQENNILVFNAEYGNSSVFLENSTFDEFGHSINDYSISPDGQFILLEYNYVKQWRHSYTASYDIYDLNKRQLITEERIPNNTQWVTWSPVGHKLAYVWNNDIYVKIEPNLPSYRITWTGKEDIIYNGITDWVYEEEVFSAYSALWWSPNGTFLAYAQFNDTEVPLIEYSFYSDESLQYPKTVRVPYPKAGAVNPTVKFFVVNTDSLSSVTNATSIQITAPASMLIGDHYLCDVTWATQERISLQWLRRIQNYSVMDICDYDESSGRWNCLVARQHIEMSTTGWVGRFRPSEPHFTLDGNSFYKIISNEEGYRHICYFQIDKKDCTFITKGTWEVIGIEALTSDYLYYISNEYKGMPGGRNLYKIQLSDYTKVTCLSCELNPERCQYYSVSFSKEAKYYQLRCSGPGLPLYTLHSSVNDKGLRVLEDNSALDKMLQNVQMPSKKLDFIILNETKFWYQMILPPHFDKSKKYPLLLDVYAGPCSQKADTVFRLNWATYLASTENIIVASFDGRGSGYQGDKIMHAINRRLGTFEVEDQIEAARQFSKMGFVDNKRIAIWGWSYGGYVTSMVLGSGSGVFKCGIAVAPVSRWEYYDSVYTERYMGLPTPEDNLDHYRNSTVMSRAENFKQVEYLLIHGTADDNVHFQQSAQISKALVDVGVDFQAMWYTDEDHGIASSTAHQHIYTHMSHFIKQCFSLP
- protocol-notes: Determination of Caco-2-derived dipeptidyl peptidase IV inhibitory activity
- test-conditions: Caco-2 crude enzyme solution, substrate Gly-Pro-p-NA, 37° C., absorbance 405 nm after 0 h and 3 h
Counter-ions that a name gives are not always drawn.
Collected pIC50 values appear next to each entry.
The scale used: pIC50 is minus the common logarithm of the concentration in molar units.

compound	pIC50
CCCCOc1c(CN)n(CC(C)(C)C)c(=O)c2ccc(OCC(N)=O)cc12 [Example 95, hydrochloride]	6.55

(Q) Recall and state the measured pIC50 for CC(=O)Nc1ccc2c(=O)n(CC(C)C)c(CN)c(-c3ccccc3)c2c1.Cl [Example 112, hydrochloride] .
(A) 6.60

* * *

experimental-endpoint: melting point

(Q) Recall and state the measured melting point for Cc1ccc(-c2c(CN)n(CC(C)C)c(=O)c3ccc(OCC(N)=O)cc23)cc1.Cl (hydrate or solvate) .
(A) 278 to 280 °C

(Q) Recall and state the measured melting point for CC(C)Cn1c(CN)c(-c2ccccc2)c2cc(Cl)ccc2c1=O [Example 118] .
(A) 123 to 124 °C

(Q) Recall and state the measured melting point for Cc1ccc(-c2c(CN)n(CC(C)C)c(=O)c3ccccc23)cc1.Cl .
(A) 178 to 180 °C (dec.)

(Q) Recall and state the measured melting point for CC(C)Cn1c(CN)c(-c2ccccc2)c2cc(-c3noc(=O)[nH]3)ccc2c1=O.Cl .
(A) 253 °C (dec.)

(Q) Recall and state the measured melting point for CCCCOc1c(CN)n(CC(C)C)c(=O)c2ccc(-c3cnco3)cc12.Cl .
(A) 211 to 213 °C

* * *

Collected IC50 values appear next to each entry.
- target-desc: dipeptidyl peptidase IV in rat plasma (Rattus norvegicus, UniProt P14740)
- Construct: Plasma (20 μl) prepared from blood of SD rat by a conventional method
- Sequence (P14740 38-767 limits assumed): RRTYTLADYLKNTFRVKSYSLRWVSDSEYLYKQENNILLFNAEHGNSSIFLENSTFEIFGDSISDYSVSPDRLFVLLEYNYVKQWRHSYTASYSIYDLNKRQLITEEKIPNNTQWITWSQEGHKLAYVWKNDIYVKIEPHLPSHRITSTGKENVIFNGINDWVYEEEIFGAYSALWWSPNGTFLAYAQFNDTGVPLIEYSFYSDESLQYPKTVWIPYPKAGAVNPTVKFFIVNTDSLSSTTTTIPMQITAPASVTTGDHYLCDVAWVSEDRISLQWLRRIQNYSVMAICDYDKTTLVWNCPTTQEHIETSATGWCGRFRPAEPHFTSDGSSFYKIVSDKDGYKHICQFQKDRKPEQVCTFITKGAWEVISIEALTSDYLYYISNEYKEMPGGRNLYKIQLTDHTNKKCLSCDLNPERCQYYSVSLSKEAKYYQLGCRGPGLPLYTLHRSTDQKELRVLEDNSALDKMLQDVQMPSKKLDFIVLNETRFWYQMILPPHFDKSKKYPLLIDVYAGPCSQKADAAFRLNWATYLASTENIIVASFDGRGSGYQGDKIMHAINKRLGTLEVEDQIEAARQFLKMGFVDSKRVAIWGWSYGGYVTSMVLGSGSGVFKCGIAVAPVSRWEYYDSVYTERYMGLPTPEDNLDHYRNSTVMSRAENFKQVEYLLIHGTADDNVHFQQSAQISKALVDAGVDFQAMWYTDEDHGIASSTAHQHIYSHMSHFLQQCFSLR
- protocol-notes: Determination of dipeptidyl peptidase IV inhibitory activity in rat plasma
- test-conditions: SD rat plasma, substrate Gly-Pro-p-NA, 30° C., absorbance 405 nm after 0 h and 1 h
Structures can show the parent of a compound that is named as a salt.
API: value field is a number in nM; no unit string.

molecule	target-desc	IC50 / nM
CCCCOc1c(CN)n(CC(C)(C)C)c(=O)c2ccc(OCC(N)=O)cc12 [Example 95, hydrochloride]	dipeptidyl peptidase IV in rat plasma (Rattus norvegicus, UniProt P14740)	180

Attention now turns to another entry.
(Q) Recall and state the measured IC50 for CC(=O)Nc1ccc2c(=O)n(CC(C)C)c(CN)c(-c3ccccc3)c2c1.Cl [Example 112, hydrochloride] .
(A) 320

* * *

Collected melting point values appear next to each entry.
Structures can show the parent of a compound that is named as a salt.

Examples from the recorded data:
compound	melting point
CCCCOc1c(CN)n(CC(C)C)c(=O)c2ccc(C#N)cc12.Cl	135 to 136 °C
CCCCOc1c(CN)n(CC2CC2)c(=O)c2ccc(C(N)=O)cc12.Cl (hydrate or solvate)	164 to 165 °C
CC(C)Cn1c(CN)c(-c2ccccc2)c2cc(-c3nn[nH]n3)ccc2c1=O.Cl	218 to 220 °C
CC(C)Cn1c(CN)c(-c2ccc(Cl)cc2)c2cc(O)ccc2c1=O.Cl	247 to 249 °C
CCCCOc1c(CN)n(CC2CC2)c(=O)c2ccc(-c3cnco3)cc12.Cl	124 to 126 °C
CCCCOc1c(CN)n(CC(C)(C)C)c(=O)c2ccc(OCC(N)=O)cc12 (as salt: hydrochloride)	233 to 235 °C
CCn1c(CN)c(-c2ccccc2)c2cc(Cl)ccc2c1=O	126 to 127 °C
CC(C)Cn1c(CN)c(-c2ccccc2)c2cc(-c3nsc(=O)[nH]3)ccc2c1=O.Cl	232 to 237 °C
CC(C)Cn1c(CN)c(-c2ccc(Cl)cc2)c2ccccc2c1=O	119 to 120 °C
Cc1csc(-c2ccc3c(=O)n(CC(C)C)c(CN)c(-c4ccccc4)c3c2)n1 (hydrate or solvate)	162 to 163 °C

(Q) Recall and state the measured melting point for CC(C)Cn1c(CN)c(-c2cccc(F)c2)c2cc(OCC(N)=O)ccc2c1=O.Cl .
(A) 209 to 210 °C

(Q) Recall and state the measured melting point for CC(C)Cn1c(CN)c(-c2ccc(F)cc2)c2cc(/C=C/C(=O)O)ccc2c1=O.Cl .
(A) 255 to 256 °C

(Q) Recall and state the measured melting point for CC(C)(C)Cn1c(CN)c(-c2ccccc2)c2cc(Cl)ccc2c1=O .
(A) 173 to 174 °C

* * *

experimental-endpoint: melting point

compound	experimental-endpoint	recorded-value
CC(C)Cn1c(CN)c(-c2ccccc2)c2cc(SCC(N)=O)ccc2c1=O	melting point	218 to 220 °C
CCCCOc1c(CN)n(CC(C)C)c(=O)c2ccc(OCC(N)=O)cc12.Cl (hydrate or solvate)	melting point	248 to 250 °C
CC(=O)c1ccc2c(=O)n(CC(C)C)c(CN)c(-c3ccccc3)c2c1.Cl	melting point	179 °C (dec.)
CCCCOc1c(CN)n(CC(C)(C)C)c(=O)c2ccc(/C=C/C(N)=O)cc12.Cl (hydrate or solvate)	melting point	187 to 188 °C
CCCCOc1c(CN)n(CC(C)C)c(=O)c2ccc(C(N)=S)cc12.Cl	melting point	200 to 202 °C
CCCCOc1c(CN)n(CC(C)C)c(=O)c2ccc(NC(=O)C(C)C)cc12.Cl	melting point	181 to 183 °C

(Q) Recall and state the measured melting point for Cc1ccc(-c2c(CN)n(CC(C)C)c(=O)c3ccc(O)cc23)cc1.Cl .
(A) 255 to 256 °C

(Q) Recall and state the measured melting point for CC(C)Cn1c(CN)c(OCCCC(F)(F)F)c2cc(OCC(N)=O)ccc2c1=O.Cl (hydrate or solvate) .
(A) 147 to 148 °C

(Q) Recall and state the measured melting point for CC1=NN(c2ccc3c(=O)n(CC(C)C)c(CN)c(-c4ccccc4)c3c2)CO1 .
(A) 179 to 181 °C

* * *

Collected melting point values appear next to each entry.

molecule	recorded-value
CC(C)Cn1c(CN)c(-c2ccccc2)c2cc(/C=C/C(N)=O)ccc2c1=O.Cl (hydrate or solvate)	223 to 225 °C

(Q) Recall and state the measured melting point for CC(C)Cn1c(CN)c(-c2ccc(F)cc2)c2cc(OCC(N)=O)ccc2c1=O.Cl .
(A) 189 to 190 °C

(Q) Recall and state the measured melting point for CSc1ccc2c(=O)n(CC(C)C)c(CN)c(-c3ccccc3)c2c1.Cl .
(A) 252 to 255 °C

(Q) Recall and state the measured melting point for CCCCOc1c(CN)n(CC2CC2)c(=O)c2ccc(OCC(N)=O)cc12.Cl (hydrate or solvate) .
(A) 133 to 134 °C

(Q) Recall and state the measured melting point for CCCCOc1c(CN)n(CC(C)(C)C)c(=O)c2ccc(CC(N)=O)cc12.Cl .
(A) 163 to 165 °C

(Q) Recall and state the measured melting point for CCCCOc1c(CN)n(CC(C)C)c(=O)c2ccc(/C=C/C(N)=O)cc12.Cl .
(A) 223 to 225 °C

(Q) Recall and state the measured melting point for CC(C)Cn1c(CN)c(-c2ccccc2)c2ccccc2c1=O .
(A) 129 to 130 °C

(Q) Recall and state the measured melting point for CC(C)Cn1c(CN)c(-c2ccccc2)c2cc(S(C)(=O)=O)ccc2c1=O.Cl .
(A) 209 °C (dec.)

(Q) Recall and state the measured melting point for CC(C)Cn1c(CN)c(-c2ccccc2)c2cc([S+](C)[O-])ccc2c1=O (stereo not drawn) .
(A) 167 °C (dec.)

* * *

Collected melting point values appear next to each entry.

CC(C)Cn1c(CN)c(-c2ccccc2)c2cc(CC#N)ccc2c1=O.Cl 142 to 144 °C
CC(C)Cn1c(CN)c(-c2ccccc2)c2cc(/C=C/C(N)=O)ccc2c1=O 228 to 230 °C
CC(C)Cn1c(CN)c(-c2ccccc2)c2cc(Br)ccc2c1=O 129 to 130 °C

Attention now turns to another entry.
(Q) Recall and state the measured melting point for CCCCOc1c(CN)n(CC2CC2)c(=O)c2ccc(/C=C/C(N)=O)cc12.Cl .
(A) 188 to 190 °C

Values were extracted from patent US7034039B2.
